Molecular target: T1, CD123 (Homo sapiens (Human), UniProt P26951 19-305, limits assumed)
T1 construct: The CD123 construct used in the ELISA is not described; also called CD123-Signal
T1 sequence: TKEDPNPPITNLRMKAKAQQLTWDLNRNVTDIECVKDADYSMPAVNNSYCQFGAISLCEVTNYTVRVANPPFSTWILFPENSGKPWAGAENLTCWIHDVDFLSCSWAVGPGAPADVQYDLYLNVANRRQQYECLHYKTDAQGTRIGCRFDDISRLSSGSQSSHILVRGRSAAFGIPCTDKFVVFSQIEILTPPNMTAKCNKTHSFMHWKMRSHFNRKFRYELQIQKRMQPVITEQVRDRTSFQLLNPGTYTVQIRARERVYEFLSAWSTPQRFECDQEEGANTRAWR
Test: ELISA
Design: unit not given here
endpoint: ELISA_avg

# binder, assay-value
data = [
    ("D domain of SEQ ID NO: 420 (designed binder) MGSWLEFMWRLDAIDERLWALGGSEAELAAFEKEIAAFESELQAYKGKGNPEVELLREMAAAIRDDLQAYRHN", 5.1),
    ("D domain of SEQ ID NO: 424 (designed binder) MGSWSEFEDRLWAIDQRLFALGGSEAELAAFEKEIAAFESELQAYKGKGNPEVEWLRAYAADIRWELQAYRHN", 4.2),
    ("D domain of SEQ ID NO: 545 (designed binder) MGSWWLFKEQLALIKYNLEALGGSEAELADFESWIAEFEHQLQEYKGKGNPEVEALRKEAAAIRDELQAYRHN", 4.1),
    ("D domain of SEQ ID NO: 508 (designed binder) MGSWSWFKEDLAEIKMELEALGGSEAELAYFEWYIAEFEFQLQHYKGKGNPEVEALRKEAAAIRDELQAYRHN", 4.8),
]

Sample D domain of SEQ ID NO: 413 (designed binder) MGSWFEFEDRLEAIYQRLDALGGSEAELAAFEKEIAAFESELQAYKGKGNPEVEWLRDEAAWIRSDLQAYRHN — what was its ELISA_avg?
5.5
